# measurement target: Factor VIIa (Homo sapiens, UniProt P08709)
# Sequence (P08709 213-466 limits assumed): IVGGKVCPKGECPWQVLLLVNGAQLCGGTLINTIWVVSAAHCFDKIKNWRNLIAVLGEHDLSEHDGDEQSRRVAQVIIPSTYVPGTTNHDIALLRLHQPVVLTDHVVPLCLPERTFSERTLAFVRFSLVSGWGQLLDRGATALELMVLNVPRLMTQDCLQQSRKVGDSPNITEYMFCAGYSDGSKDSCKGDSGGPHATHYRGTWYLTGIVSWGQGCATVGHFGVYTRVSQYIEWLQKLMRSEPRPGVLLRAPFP
# Sequence (P08709 61-212 limits assumed): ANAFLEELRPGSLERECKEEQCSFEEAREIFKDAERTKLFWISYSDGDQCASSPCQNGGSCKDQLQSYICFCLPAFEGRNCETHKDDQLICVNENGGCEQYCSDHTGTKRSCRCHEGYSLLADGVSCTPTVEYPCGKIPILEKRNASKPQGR
# Sequence (P13726 33-251 partner limits assumed): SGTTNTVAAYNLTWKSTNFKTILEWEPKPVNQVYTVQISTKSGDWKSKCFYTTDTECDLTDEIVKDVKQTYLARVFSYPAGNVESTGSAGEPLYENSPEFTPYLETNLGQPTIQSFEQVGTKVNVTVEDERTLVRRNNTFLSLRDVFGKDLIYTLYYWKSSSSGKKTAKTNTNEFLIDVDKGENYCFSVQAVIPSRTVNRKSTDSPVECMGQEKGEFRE
# test protocol: Factor VIIa assay
# cond: measured in the Factor VIIa assay described above; several values in a cell are repeat determinations
pKi: −log10 of the molar value. Counter-ions that a name gives are not always drawn.
Is pKi at least 8? Then YES. If not, NO.

Incoming: Check this compound for pKi at or above 8: Cc1cc2ccc1[C@@H](C)CCC(=O)Nc1ccc(OC(F)(F)F)c(c1)CN(C)C(=O)[C@@H]2Nc1ccc2c(F)c[nH]c(=O)c2c1 (single isomer, unassigned)
Outgoing: NO

Incoming: Check this compound for pKi at or above 8: CC(=O)N1CC(=O)Nc2ccc(S(=O)(=O)C(C)C)c(c2)CNC(=O)C(Nc2ccc3cc[nH]c(=O)c3c2)c2cc(C)c(c(C)c2)C1 (stereo not shown) [Example 128, trifluoroacetate]
Outgoing: NO

Incoming: Check this compound for pKi at or above 8: Cc1cc2cc(C)c1CCOC(=O)Nc1cccc(c1)CN(C)C(=O)C2Nc1ccc2cc[nH]c(=O)c2c1 (stereo not shown)
Outgoing: NO

Incoming: Check this compound for pKi at or above 8: CCOC(=O)CCN1Cc2cccc(c2)NC(=O)OCCc2c(C)cc(cc2C)[C@@H](Nc2ccc3cc[nH]c(=O)c3c2)C1=O
Outgoing: NO

Incoming: Check this compound for pKi at or above 8: COC(=O)N1CC(=O)Nc2ccc(S(=O)(=O)C(C)C)c(c2)CNC(=O)C(Nc2ccc3nc[nH]c(=O)c3c2)c2cc(C)c(c(C)c2)C1 (stereo not shown) [Example 117, trifluoroacetate]
Outgoing: NO

Incoming: Check this compound for pKi at or above 8: CCc1cc2ccc1[C@@H](C)COC(=O)Nc1ccc(S(=O)(=O)C3CC3)c(c1)CN(C)C(=O)[C@@H]2Nc1ccc2cc[nH]c(=O)c2c1
Outgoing: YES

Incoming: Check this compound for pKi at or above 8: C[C@H]1COC(=O)Nc2ccc(S(=O)(=O)C3CC3)c(c2)CN(C)C(=O)[C@H](Nc2ccc3cc[nH]c(=O)c3c2)c2ccc1c(Cl)c2
Outgoing: YES

Incoming: Check this compound for pKi at or above 8: Cc1cc2ccc1[C@@H](C)COC(=O)Nc1ccc(S(=O)(=O)C3CC3)c(c1)CN(C)C(=O)[C@@H]2Nc1ccc2cc[nH]c(=O)c2c1
Outgoing: YES

Incoming: Check this compound for pKi at or above 8: Cc1cc2cc(C)c1CCOC(=O)Nc1cccc(c1)CN(CCC(=O)O)C(=O)C2Nc1ccc2cc[nH]c(=O)c2c1 (stereo not shown)
Outgoing: NO

Incoming: Check this compound for pKi at or above 8: CCOC(=O)CCN1Cc2cccc(c2)NC(=O)OC[C@H](C)c2ccc(cc2C)[C@@H](Nc2ccc3cc[nH]c(=O)c3c2)C1=O
Outgoing: NO

----------
# measurement target: Factor VIIa (Homo sapiens, UniProt P08709)
# test protocol: Factor VIIa assay
# cond: measured in the Factor VIIa assay described above; several values in a cell are repeat determinations
Counter-ions that a name gives are not always drawn.
measured quantity: Ki

Incoming: Look up Ki: Cc1cc2cc(C)c1CN(C(C)C)CC(=O)Nc1ccc(S(=O)(=O)C(C)C)c(c1)CNC(=O)C2Nc1ccc2nc[nH]c(=O)c2c1 (stereo not drawn)
Outgoing: 33.2 nM

Incoming: Look up Ki: Cc1cc2ccc1[C@@H](C)COC(=O)Nc1ccc(N3C(=O)C4CCC3CC4)c(c1)CN(C)C(=O)[C@@H]2Nc1ccc2cc[nH]c(=O)c2c1
Outgoing: 0.88 nM

Incoming: Look up Ki: Cc1cc2ccc1[C@@H](C)COC(=O)Nc1ccc(N3CCCCS3(=O)=O)c(c1)CN(C)C(=O)[C@@H]2Nc1ccc2cc[nH]c(=O)c2c1
Outgoing: 1.95 nM

Incoming: Look up Ki: Cc1cc2ccc1[C@@H](C)COC(=O)Nc1cccc(c1)CN(CCO)C(=O)[C@@H]2Nc1ccc2cc[nH]c(=O)c2c1
Outgoing: 1120 nM

Incoming: Look up Ki: COc1cc2ccc1[C@@H](C)COC(=O)Nc1ccc(S(=O)(=O)C3CC3)c(c1)CN(C)C(=O)[C@@H]2Nc1ccc2cc[nH]c(=O)c2c1
Outgoing: 0.61 nM

Incoming: Look up Ki: COCCN1Cc2cccc(c2)NC(=O)OC[C@H](C)c2ccc(cc2C)[C@@H](Nc2ccc3cc[nH]c(=O)c3c2)C1=O
Outgoing: 1060 nM

Incoming: Look up Ki: CCN1CC(=O)Nc2ccc(S(=O)(=O)C(C)C)c(c2)CNC(=O)C(Nc2ccc3nc[nH]c(=O)c3c2)c2cc(C)c(c(C)c2)C1 (stereo not drawn) [Example 121, bistrifluoroacetate]
Outgoing: 23.6 nM

Incoming: Look up Ki: COC(=O)NCCN1Cc2cccc(c2)NC(=O)OC[C@H](C)c2ccc(cc2C)[C@@H](Nc2ccc3cc[nH]c(=O)c3c2)C1=O
Outgoing: 1460 nM

Incoming: Look up Ki: Cc1cc2ccc1[C@@H](C)COC(=O)Nc1cccc(c1)CN(CCNC(=O)OC(C)(C)C)C(=O)[C@@H]2Nc1ccc2cc[nH]c(=O)c2c1
Outgoing: 2530 nM

Incoming: Look up Ki: CCC(=O)N1CC(=O)Nc2ccc(S(=O)(=O)C(C)C)c(c2)CNC(=O)C(Nc2ccc3nc[nH]c(=O)c3c2)c2cc(C)c(c(C)c2)C1 (stereo not drawn) [Example 118, trifluoroacetate]
Outgoing: 28.1 nM

Incoming: Look up Ki: CCO[C@H]1COC(=O)Nc2ccc(S(=O)(=O)C3CC3)c(c2)CN(C)C(=O)[C@H](Nc2ccc3cc[nH]c(=O)c3c2)c2ccc1c(C)c2 (single isomer, unassigned)
Outgoing: 1.57 nM

Incoming: Look up Ki: Cc1cc2ccc1[C@@H](C)COC(=O)Nc1cccc(c1)CN(CCN)C(=O)[C@@H]2Nc1ccc2cc[nH]c(=O)c2c1
Outgoing: 1210 nM
